A short record of Ki observed with 5-hydroxytryptamine receptor 6 (Homo sapiens, UniProt P50406) follows.
Sequence (P50406 whole entry): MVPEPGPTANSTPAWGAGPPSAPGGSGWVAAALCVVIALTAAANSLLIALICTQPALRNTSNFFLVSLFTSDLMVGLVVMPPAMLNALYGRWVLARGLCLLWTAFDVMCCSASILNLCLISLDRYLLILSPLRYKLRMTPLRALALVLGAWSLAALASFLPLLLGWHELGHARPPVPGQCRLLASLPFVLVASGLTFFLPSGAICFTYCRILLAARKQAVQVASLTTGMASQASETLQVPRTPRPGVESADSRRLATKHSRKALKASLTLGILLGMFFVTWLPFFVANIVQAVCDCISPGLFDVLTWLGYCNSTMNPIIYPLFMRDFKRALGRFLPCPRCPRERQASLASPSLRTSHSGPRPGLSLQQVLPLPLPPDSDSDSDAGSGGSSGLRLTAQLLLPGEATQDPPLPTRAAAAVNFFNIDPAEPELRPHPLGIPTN
Could you give the number and then its unit, please?

{"smiles-text": "CSc1nn2c3c(cnc2c1S(=O)(=O)c1ccccc1)CN(C)CC3", "Ki": "35.7 nM"}

5-hydroxytryptamine receptor 6 (Homo sapiens, UniProt P50406) Ki of Cc1nn2c3c(cnc2c1S(=O)(=O)c1ccccc1)CNCC3 is 2.14 nM
